// provenance: ChEMBL document CHEMBL1125286

# TGT: Serotonin 3 (5-HT3) receptor (Rattus norvegicus) (UniProt P35563+Q9JJ16)
# ASSAY SUMMARY: 5-hydroxytryptamine 3 receptor antagonistic activity as inhibition of 5-HT-induced bradycardia after iv administration of 100 ug/kg dose in urethane-anesthetized rats
# Assay type: functional, organism-based
MEASURED METRIC: inhibition (%)
Respond with the bare value in %.

Examples with answers:
Q: Look up inhibition for this molecule: Cc1cc2c(c(C(=O)OC3CC4CCC(C3)N4C)c1)OCC2 (stereo not drawn)
Result: 67.2

Q: // same read-out, input: CN1C2CCC1CC(OC(=O)c1cccc3c1OCC3)C2 (stereo not drawn)
Result: 51.2

Q: Next up: CN1C2CCC1CC(OC(=O)c1cccc3oc4ccccc4c13)C2 (stereo not drawn)
Result: 12.4

Q: Please answer likewise for CN1C2CCC1CC(CC(=O)c1ccccc1)C2 (stereo not drawn)
Result: 31.3

Q: Another: CC1Cc2cccc(C(=O)NC3CC4CCC(C3)N4C)c2O1 (stereo not drawn)
Result: 87.6

Q: Also need "CN1[C@@H]2CC[C@H]1C[C@@H](OC(=O)c1cc(Cl)cc(Cl)c1)C2" , thanks.
Result: 71.4

Q: Check "CN1[C@@H]2CC[C@H]1C[C@@H](OC(=O)c1c[nH]c3ccccc13)C2" too.
Result: 70.6

--- query ---
Q: What does the data say about its inhibition? Entry: Cc1cc2c(c(C(=O)OC3CC4CCC(C3)N4C)c1)OC(C)C2 (stereo not drawn)
Result: 78.2
